Assignment: determine reported log(activity) for the given compounds.
- Tested on: Oryctolagus cuniculus
- protocol.details: Progestational activity in immature rabbit assessed as proliferation of uterus administered intramuscularly by haematoxylin and eosin staining-based assay
- Assay type: functional
Just the number.

Fill in: log(activity) of C=C1C[C@H]2[C@@H]3C=C(C=O)C4=CC(=O)CC[C@]4(C)[C@H]3CC[C@]2(C)[C@@]1(OC(C)=O)C(C)=O is ___ 0

What value of measured log(activity) is listed for C=C1C[C@H]2[C@@H]3C=CC4=CC(=O)CC[C@]4(C)[C@H]3CC[C@]2(C)[C@@]1(OC(C)=O)C(C)=O ? 0

Form field: reported log(activity) of C=C1C[C@H]2[C@@H]3C=C(SC#N)C4=CC(=O)CC[C@]4(C)[C@H]3CC[C@]2(C)[C@@]1(OC(C)=O)C(C)=O 1.08

Recorded log(activity) of C=C1C[C@H]2[C@@H]3C=C(Br)C4=CC(=O)CC[C@]4(C)[C@H]3CC[C@]2(C)[C@@]1(OC(C)=O)C(C)=O , please. 1.62

Entry C=C1C[C@H]2[C@@H]3C=C(OC(C)=O)C4=CC(=O)CC[C@]4(C)[C@H]3CC[C@]2(C)[C@@]1(OC(C)=O)C(C)=O : reported log(activity) = ? -0.7

// query log(activity) value for entry C=C1C[C@H]2[C@@H]3C=C(NC(C)=O)C4=CC(=O)CC[C@]4(C)[C@H]3CC[C@]2(C)[C@@]1(OC(C)=O)C(C)=O -1

For C=C1C[C@H]2[C@@H]3C=C(C)C4=CC(=O)CC[C@]4(C)[C@H]3CC[C@]2(C)[C@@]1(OC(C)=O)C(C)=O [MELENGESTROL ACETATE] , what is its reported log(activity)? 1.96

Query: log(activity); subject: C=C1C[C@H]2[C@@H]3C=C(Cl)C4=CC(=O)CC[C@]4(C)[C@H]3CC[C@]2(C)[C@@]1(OC(C)=O)C(C)=O 1.89

Tell me the measured log(activity) of C=C1C[C@H]2[C@@H]3C=C(C(F)(F)F)C4=CC(=O)CC[C@]4(C)[C@H]3CC[C@]2(C)[C@@]1(OC(C)=O)C(C)=O , please. 1.04

Fill in the blank: the reported log(activity) of C=C1C[C@H]2[C@@H]3C=C(OCC)C4=CC(=O)CC[C@]4(C)[C@H]3CC[C@]2(C)[C@@]1(OC(C)=O)C(C)=O is ____. 0

Sample C=C1C[C@H]2[C@@H]3C=C(N=[N+]=[N-])C4=CC(=O)CC[C@]4(C)[C@H]3CC[C@]2(C)[C@@]1(OC(C)=O)C(C)=O — what was its log(activity)? 1.3

I'd like to know its log(activity). The compound in question is C=C1C[C@H]2[C@@H]3C=C(C#N)C4=CC(=O)CC[C@]4(C)[C@H]3CC[C@]2(C)[C@@]1(OC(C)=O)C(C)=O 0.78

Entry under review: C=C1C[C@H]2[C@@H]3C=C(F)C4=CC(=O)CC[C@]4(C)[C@H]3CC[C@]2(C)[C@@]1(OC(C)=O)C(C)=O . Reported log(activity)? 1.74

Reported log(activity), compound C=C1C[C@H]2[C@@H]3C=C(OC)C4=CC(=O)CC[C@]4(C)[C@H]3CC[C@]2(C)[C@@]1(OC(C)=O)C(C)=O : ____ 1.15
